Biological target: Rho-associated protein kinase 2 (Homo sapiens, UniProt O75116)
Sequence (O75116 whole entry): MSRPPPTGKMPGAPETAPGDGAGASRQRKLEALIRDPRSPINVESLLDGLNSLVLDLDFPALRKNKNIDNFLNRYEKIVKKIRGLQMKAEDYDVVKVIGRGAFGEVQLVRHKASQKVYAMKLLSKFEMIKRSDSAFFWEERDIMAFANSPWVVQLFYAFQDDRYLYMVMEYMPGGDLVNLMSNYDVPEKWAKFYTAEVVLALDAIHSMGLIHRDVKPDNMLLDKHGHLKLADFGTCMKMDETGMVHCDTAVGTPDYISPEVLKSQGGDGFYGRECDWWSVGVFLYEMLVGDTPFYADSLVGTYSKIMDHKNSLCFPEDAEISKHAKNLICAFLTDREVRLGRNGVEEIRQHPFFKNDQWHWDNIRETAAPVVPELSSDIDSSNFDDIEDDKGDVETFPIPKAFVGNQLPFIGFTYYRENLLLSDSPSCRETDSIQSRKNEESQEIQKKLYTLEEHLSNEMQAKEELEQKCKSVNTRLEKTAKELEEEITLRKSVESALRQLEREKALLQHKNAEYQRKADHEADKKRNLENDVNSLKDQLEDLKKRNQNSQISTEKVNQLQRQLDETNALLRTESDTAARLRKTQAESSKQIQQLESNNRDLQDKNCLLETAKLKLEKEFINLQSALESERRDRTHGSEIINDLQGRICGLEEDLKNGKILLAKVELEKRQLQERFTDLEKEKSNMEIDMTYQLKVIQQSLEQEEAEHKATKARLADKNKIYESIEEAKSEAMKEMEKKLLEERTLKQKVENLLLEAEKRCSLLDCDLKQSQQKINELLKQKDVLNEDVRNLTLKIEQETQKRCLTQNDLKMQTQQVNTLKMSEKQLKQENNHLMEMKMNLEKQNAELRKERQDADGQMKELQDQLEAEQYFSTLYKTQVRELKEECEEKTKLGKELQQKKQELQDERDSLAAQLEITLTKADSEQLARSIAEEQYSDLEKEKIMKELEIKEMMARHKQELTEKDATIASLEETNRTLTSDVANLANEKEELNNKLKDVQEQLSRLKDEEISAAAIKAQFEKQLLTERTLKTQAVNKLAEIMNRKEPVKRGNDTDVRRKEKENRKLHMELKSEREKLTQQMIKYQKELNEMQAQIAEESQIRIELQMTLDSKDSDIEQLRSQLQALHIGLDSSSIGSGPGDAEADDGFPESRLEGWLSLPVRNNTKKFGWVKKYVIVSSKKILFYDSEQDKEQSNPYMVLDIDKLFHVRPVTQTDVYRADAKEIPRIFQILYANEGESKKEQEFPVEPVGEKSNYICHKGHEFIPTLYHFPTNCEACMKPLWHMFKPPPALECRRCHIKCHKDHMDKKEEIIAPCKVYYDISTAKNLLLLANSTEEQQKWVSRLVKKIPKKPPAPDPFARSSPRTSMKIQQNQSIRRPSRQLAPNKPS
Observable: pIC50
pIC50 (log units): -log10 of the concentration in mol/L.

System Rho-associated protein kinase 2 (Homo sapiens, UniProt O75116). Read-out pIC50. Item `CN1C(=O)[C@@H](N2CCc3c(nn(Cc4ccccc4)c3Br)C2=O)COc2ccccc21` . Report value.
6.00

----------
Target: UniProt:Q09013
Sequence (Q09013 whole entry): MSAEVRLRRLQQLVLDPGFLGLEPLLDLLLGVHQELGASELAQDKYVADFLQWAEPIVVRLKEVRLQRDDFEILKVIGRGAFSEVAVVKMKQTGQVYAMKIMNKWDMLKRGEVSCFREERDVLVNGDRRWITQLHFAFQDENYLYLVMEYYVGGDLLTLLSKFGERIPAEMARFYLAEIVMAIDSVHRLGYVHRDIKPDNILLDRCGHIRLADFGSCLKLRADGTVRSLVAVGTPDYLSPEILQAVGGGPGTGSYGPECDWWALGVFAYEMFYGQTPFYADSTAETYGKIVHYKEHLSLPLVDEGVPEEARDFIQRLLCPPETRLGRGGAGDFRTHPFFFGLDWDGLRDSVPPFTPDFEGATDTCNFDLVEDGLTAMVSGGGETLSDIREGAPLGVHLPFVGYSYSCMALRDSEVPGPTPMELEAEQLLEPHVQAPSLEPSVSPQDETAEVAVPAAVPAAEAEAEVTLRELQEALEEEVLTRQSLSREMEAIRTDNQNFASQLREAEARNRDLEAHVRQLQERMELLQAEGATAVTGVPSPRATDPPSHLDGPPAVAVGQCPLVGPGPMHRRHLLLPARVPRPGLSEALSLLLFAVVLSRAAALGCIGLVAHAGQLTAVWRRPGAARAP
Observable: IC50
The answer should read as a number with its unit following.

For CN1C(=O)[C@@H](N2CCc3c(nn(Cc4ccccc4)c3Br)C2=O)COc2ccccc21 [TP-030-2] , write its IC50.
1000 nM
